Values compiled from ChEMBL document CHEMBL1153558.

system: Sporothrix; assay: Antifungal activity against Sporothrix brasiliensis after 72 hrs by microdilution method; type: functional
Provide the recorded MIC50 for the entries that follow.
All answers are understood in µg/mL, so give the number only.

Requested read-out: MIC50. Entry: "CN(C/C=C/C#CC(C)(C)C)Cc1cccc2ccccc12" 0.06

Now consider "C[C@@H](c1ncncc1F)[C@](O)(Cn1cncn1)c1ccc(F)cc1F" . 4

Now consider CCC(C)n1ncn(-c2ccc(N3CCN(c4ccc(OCC5COC(Cn6cncn6)(c6ccc(Cl)cc6Cl)O5)cc4)CC3)cc2)c1=O (stereo not drawn) . 0.5

* * *

tested on: Sporothrix; assay: Antifungal activity against Sporothrix mexicana after 72 hrs by microdilution method; type: functional
Numbered stars: 1 amine (or outer) side, 2 acyl side, 3 side chain; on linkers, the order of the positions; unused ones are H or OH. Bridge positions count the residues as written; N and C are the ends. Square brackets hold non-standard residues; d marks the D form. Peptide text beside a SMILES is read from it. * marks the point of attachment. hTyr(3S-OH,4S-OH,3'-OSO3H) = N[C@H](C(=O)O)[C@H](O)[C@@H](O)c1ccc(O)c(OS(=O)(=O)O)c1; Orn(4R-OH,5R-OH) = O=C([C@H](C[C@@H](O)[C@@H](O)N[*:3])N[*:1])[*:2]; Pro(3S-OH,4S-Me) = C[C@H]1CN[C@H](C(=O)O)[C@H]1O; X1 = CCCCCOc1ccc(-c2cc(-c3ccc(C(=O)*)cc3)no2)cc1; Gln(3R-OH) = NC(=O)C[C@@H](O)[C@H](N)C(=O)O; Hyp = O=C(O)[C@@H]1C[C@@H](O)CN1
Provide the recorded MIC for the entries that follow.
All answers are understood in µg/mL, so give the number only.

Requested read-out: MIC. Entry: Clc1cc(Cl)c2c(c1)CCc1ccccc1C2n1ccnc1 (stereo not given) 32

Now consider CCCCCOc1ccc(-c2cc(-c3ccc(C(=O)N[C@H]4C[C@@H](O)[C@@H](O)NC(=O)[C@@H]5[C@@H](O)[C@@H](C)CN5C(=O)[C@H]([C@H](O)CC(N)=O)NC(=O)[C@H]([C@H](O)[C@@H](O)c5ccc(O)c(OS(=O)(=O)O)c5)NC(=O)[C@@H]5C[C@@H](O)CN5C(=O)[C@H]([C@@H](C)O)NC4=O)cc3)no2)cc1 [MICAFUNGIN] (X1-[Orn(4R-OH,5R-OH)]T[Hyp][hTyr(3S-OH,4S-OH,3'-OSO3H)][Gln(3R-OH)][Pro(3S-OH,4S-Me)]; lactam 1-C) . 256

Now consider "OC(Cn1cncn1)(Cn1cncn1)c1ccc(F)cc1F" . 128

Now consider "C[C@@H](c1ncncc1F)[C@](O)(Cn1cncn1)c1ccc(F)cc1F" . 16

Now consider CC(=O)N1CCN(c2ccc(OCC3COC(Cn4ccnc4)(c4ccc(Cl)cc4Cl)O3)cc2)CC1 (stereo not given) . 4
